- System: ECHCG (Echinochloa crus-galli)
- Experiment Description: Preemergence herbicidal evaluation
- Type: in vivo, (L.) Beau
- Settings: Rate 0.1250 kg/ha; preemergence; rated 4-5 weeks after treatment
- Text: Results of herbicide evaluation are expressed on a rating scale (0-9). The scale is based upon a visual observation of plant stand, vigor, malformation, size, chlorosis and overall plant appearance as compared with a control. […]
Measurement Type: ECHCG preemergence herbicidal rating
Write no unit; give the number alone.

For `Cn1c(C(F)(F)F)cc(=O)n(-c2ccc3snc(-c4ccccn4)c3c2)c1=O` , what is its reported ECHCG preemergence herbicidal rating?
9.0

Lookup `CCc1cc(-c2nsc3ccc(-n4c(=O)cc(C(F)(F)F)n(C)c4=O)cc23)c(CC)s1`
0.0

Lookup `Cn1ccnc1-c1nsc2ccc(-n3c(=O)cc(C(F)(F)F)n(C)c3=O)cc12`
8.0

The measured values listed here are drawn from patent US6706663B2.
